# system: recombinant cynomolgus monkey CD3ε/δ heterodimer (cynomolgus monkey) (UniProt Q95LI5)
# Sequence (Q95LI5 22-117, stated change not applied, chain 1 of 2): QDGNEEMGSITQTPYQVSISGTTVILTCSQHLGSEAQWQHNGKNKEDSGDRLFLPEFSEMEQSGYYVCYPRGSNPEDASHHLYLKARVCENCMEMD
# Sequence (Q95LI8 22-105, stated change not applied, chain 2 of 2, further chain): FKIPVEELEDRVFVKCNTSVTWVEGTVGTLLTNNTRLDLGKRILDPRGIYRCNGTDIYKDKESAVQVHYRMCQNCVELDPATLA
# experiment_notes: ELISA, coated CD3ε/δ
# maps each entry to its Absorbance (450 nm)
I'd appreciate a reply containing only the number, no unit.

// worked examples, Absorbance (450 nm) included
G14 (antibody, human IgG1, lambda, L234A L235A, V domains shown) VH: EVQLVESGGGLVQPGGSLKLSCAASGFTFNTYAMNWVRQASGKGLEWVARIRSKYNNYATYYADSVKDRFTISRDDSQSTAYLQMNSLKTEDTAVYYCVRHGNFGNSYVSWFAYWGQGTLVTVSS VL: QAVVTQEPSLTVSPGGTVTLTCRSSTGAVTTSNYANWVQQKPGQAPRGLIYGTNKRAPWTPARFSGSLLGDKAALTLSGAQPEDEAEYYCALWYSNLWVFGGGTKLTVLG	0.099
G04 (antibody, human IgG1, lambda, L234A L235A, V domains shown) VH: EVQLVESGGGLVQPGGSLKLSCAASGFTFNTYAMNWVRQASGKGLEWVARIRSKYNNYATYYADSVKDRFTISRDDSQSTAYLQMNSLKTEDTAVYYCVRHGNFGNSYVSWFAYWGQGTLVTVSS VL: QAVVTQEPSLTVSPGGTVTLTCRSSTGAVTTSNYANWFQQKPGQAPRTLIGGTNKRAPWTPARFSGSLLGDKAALTLSGAQPEDEAEYYCALWYSNLWVFGGGTKLTVLG	0.063

Now look at this one.
Retrieve Absorbance (450 nm) measured for A06 (antibody, human IgG1, lambda, L234A L235A, V domains shown) VH: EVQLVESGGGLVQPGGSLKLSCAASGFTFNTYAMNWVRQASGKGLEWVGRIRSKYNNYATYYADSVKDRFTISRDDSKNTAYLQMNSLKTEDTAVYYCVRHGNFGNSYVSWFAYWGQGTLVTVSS VL: QAVVTQEPSLTVSPGGTVTLTCRSSTGAVTTSNYANWFQQKPGQAPRGLIYGTNKRAPWTPARFSGSLLGDKAALTLSGAQPEDEAEYYCALWYSNLWVFGGGTKLTVLG and print it.
0.108
